biological target: PI3Kδ (Homo sapiens, UniProt O00329); construct: Full length p110 subunits of PI3k α, β and δ, N-terminally labeled with polyHis tag; polyHis (N); assay: PI3Kδ Alphascreen assay
Sequence (O00329 whole entry): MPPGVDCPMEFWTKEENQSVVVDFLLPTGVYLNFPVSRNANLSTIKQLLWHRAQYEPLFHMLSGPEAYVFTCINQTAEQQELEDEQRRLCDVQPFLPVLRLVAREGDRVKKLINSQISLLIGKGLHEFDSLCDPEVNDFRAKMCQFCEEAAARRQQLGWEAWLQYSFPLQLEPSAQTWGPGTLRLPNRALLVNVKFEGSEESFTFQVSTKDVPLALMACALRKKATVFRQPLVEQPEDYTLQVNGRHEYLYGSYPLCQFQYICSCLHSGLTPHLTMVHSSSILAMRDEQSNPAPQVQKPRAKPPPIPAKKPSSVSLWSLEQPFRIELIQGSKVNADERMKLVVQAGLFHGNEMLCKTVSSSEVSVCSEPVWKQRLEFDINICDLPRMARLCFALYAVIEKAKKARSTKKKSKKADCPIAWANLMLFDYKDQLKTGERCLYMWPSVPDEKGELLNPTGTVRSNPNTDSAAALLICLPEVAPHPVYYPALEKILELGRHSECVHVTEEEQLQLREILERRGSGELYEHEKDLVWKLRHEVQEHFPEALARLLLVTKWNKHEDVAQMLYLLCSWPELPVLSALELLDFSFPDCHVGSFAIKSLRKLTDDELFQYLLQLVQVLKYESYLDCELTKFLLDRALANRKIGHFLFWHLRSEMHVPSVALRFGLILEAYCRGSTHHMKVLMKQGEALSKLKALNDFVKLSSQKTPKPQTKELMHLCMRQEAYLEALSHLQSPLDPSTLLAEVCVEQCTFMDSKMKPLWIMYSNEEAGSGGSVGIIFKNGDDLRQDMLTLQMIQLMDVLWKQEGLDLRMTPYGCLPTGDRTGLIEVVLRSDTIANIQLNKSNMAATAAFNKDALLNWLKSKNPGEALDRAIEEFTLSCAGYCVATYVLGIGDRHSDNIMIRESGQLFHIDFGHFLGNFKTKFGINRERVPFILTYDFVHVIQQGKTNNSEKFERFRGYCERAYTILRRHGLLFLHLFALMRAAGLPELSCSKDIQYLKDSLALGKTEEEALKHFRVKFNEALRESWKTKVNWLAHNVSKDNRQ
Sequence (P27986 whole entry partner): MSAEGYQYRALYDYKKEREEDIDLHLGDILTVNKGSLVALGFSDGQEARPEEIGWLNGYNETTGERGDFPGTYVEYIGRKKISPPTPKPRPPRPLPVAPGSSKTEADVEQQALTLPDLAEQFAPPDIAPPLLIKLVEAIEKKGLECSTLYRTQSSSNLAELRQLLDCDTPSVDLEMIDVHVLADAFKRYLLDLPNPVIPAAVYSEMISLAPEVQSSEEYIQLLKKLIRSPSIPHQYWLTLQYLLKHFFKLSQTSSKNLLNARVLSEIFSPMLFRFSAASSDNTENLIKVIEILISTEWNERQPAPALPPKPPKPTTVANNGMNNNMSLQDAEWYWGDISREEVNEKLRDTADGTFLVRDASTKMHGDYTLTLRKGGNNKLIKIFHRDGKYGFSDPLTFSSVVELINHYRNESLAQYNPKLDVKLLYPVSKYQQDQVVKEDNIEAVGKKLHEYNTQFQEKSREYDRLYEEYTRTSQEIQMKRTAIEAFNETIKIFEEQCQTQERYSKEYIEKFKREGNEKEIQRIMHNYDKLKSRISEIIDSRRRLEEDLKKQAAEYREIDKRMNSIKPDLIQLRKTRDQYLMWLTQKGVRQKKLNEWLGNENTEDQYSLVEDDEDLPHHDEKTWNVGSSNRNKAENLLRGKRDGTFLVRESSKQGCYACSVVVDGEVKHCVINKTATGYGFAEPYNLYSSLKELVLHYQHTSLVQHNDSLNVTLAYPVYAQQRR
MEASURE: Ki (nM)

Cc1ccc(S(C)(=O)=O)c(-c2nc3cc(F)cc(F)c3c(Nc3cncc(N4CCOCC4)c3)c2C)c1; 1.35
Cc1c(N2CC(C)(C)CCC2=O)nc2cc(F)cc(F)c2c1Nc1cncc(N2CCOCC2)c1; 38.6
Cc1c(N2CCOCC2)nc2cc(F)cc(F)c2c1Nc1cncc(C2=CCOCC2)c1; 68.3
Cc1c(N2CCC[C@H]2C(=O)OC(C)(C)C)nc2cc(F)cc(F)c2c1Nc1cncc(N2CCOCC2)c1; 2.22
Cc1c(N2CCNC[C@H]2C)nc2cc(F)cc(F)c2c1Nc1cncc(N2CCOCC2)c1; 15.9

====

// pKi lookup, one value per entry
target: PI3Kδ (Homo sapiens); construct: Full length p110 subunits of PI3k α, β and δ, N-terminally labeled with polyHis tag; polyHis (N); test: PI3Kδ Alphascreen assay
pKi: −log10 of the molar value.
MEASURE: pKi

Cc1c(-c2ccc(C(F)(F)F)cc2C(F)(F)F)nc2cc(F)cc(F)c2c1Nc1cc(N2CCOCC2)cnc1N1CCOCC1; 6.46
Cc1c(-c2ccc(OCC3CC3)nc2)nc2cc(F)cc(F)c2c1Nc1cc(N2CCOCC2)cnc1N1CCOCC1; 7.32
Cc1c(-c2ccccc2S(C)(=O)=O)nc2cc(F)cc(F)c2c1Nc1cc(N2CCOCC2)ccc1S(C)(=O)=O; 9.08
Cc1c(-c2ccccn2)nc2cc(F)cc(F)c2c1Nc1cc(N2CCOCC2)cnc1-c1ccc(S(C)(=O)=O)cc1; 8.67
Cc1c(-c2ccccn2)nc2c(C#N)cccc2c1Nc1cc(N2CCOCC2)cnc1N1CCOCC1; 7.26
Cc1c(N2CCN(C(=O)OC(C)(C)C)[C@@H](C)C2)nc2cc(F)cc(F)c2c1Nc1cncc(N2CCOCC2)c1; 6.95
COc1ccc(-c2ccc(N3CCOCC3)cc2Nc2c(C)c(-c3ccccc3S(C)(=O)=O)nc3cc(F)cc(F)c23)cn1; 8.56
Cc1c(N2CCN(C(=O)c3cocn3)CC2)nc2cc(F)cc(F)c2c1Nc1cncc(N2CCOCC2)c1; 7.84
Cc1c(N2CCN(C(=O)C3CCCC3)CC2)nc2cc(F)cc(F)c2c1Nc1cncc(N2CCOCC2)c1; 7.38
Cc1c(-c2cnccn2)nc2cc(F)cc(F)c2c1Nc1cc(N2CCOCC2)cnc1N1CCOCC1; 8.10
Cc1ccnc(-c2nc3cc(F)ccc3c(Nc3cc(N4CCOCC4)cnc3N3CCOCC3)c2C(C)C)c1; 7.85
Cc1c(-c2ccccn2)nc2c(F)cc(F)cc2c1Nc1cc(N2CCOCC2)cnc1N1CCOCC1; 6.46
Cc1c(N2CCN(C(=O)C(C)C)CC2)nc2cc(F)cc(F)c2c1Nc1cncc(N2CCOCC2)c1; 7.48
Cc1c(-c2ccc(N3CCOCC3)nc2)nc2cc(F)cc(F)c2c1Nc1cc(N2CCOCC2)cnc1N1CCOCC1; 7.17
Cc1c(N2CCC[C@@H]2C(=O)OC(C)(C)C)nc2cc(F)cc(F)c2c1Nc1cncc(N2CCOCC2)c1; 7.74
Cc1c(-c2ccc(N3CCN(C)CC3)nc2)nc2cc(F)cc(F)c2c1Nc1cc(N2CCOCC2)cnc1N1CCOCC1; 6.53
Cc1c(N2CCN(C(=O)OCC(C)C)CC2)nc2cc(F)cc(F)c2c1Nc1cncc(N2CCOCC2)c1; 6.97
Cc1ccnc(-c2nc3c(C#N)cccc3c(Nc3cncc(N4CCOCC4)c3)c2C)c1; 7.24
COC(=O)N1CCN(c2nc3cc(F)cc(F)c3c(Nc3cncc(N4CCOCC4)c3)c2C)[C@H](C)C1; 7.50
Cc1c(-c2ccccn2)nc2ncccc2c1Nc1cncc(N2CCOCC2)c1; 6.15
CCCN1CCN(c2nc3cc(F)cc(F)c3c(Nc3cc(N4CCOCC4)cnc3N3CCOCC3)c2C)CC1=O; 8.74
Cc1c(N2CCC[C@@H]2C(=O)N(C)C)nc2cc(F)cc(F)c2c1Nc1cncc(N2CCOCC2)c1; 7.99
Cc1c(-c2ccccc2[S@+](C)[O-])nc2cc(F)cc(F)c2c1Nc1cncc(N2CCOCC2)c1; 8.41
Cc1c(-c2cccnc2)nc2cc(F)cc(F)c2c1Nc1cc(N2CCOC[C@@H]2C)cnc1N1CCOCC1; 7.67
Cc1c(-c2ccccn2)nc2cc(F)cc(F)c2c1Nc1cc(N2CCOCC2)cnc1Cl; 8.37
CCN1CCN(c2nc3cc(F)cc(F)c3c(Nc3cncc(N4CCOCC4)c3)c2C)CC1; 7.82
Cc1cccc(-c2nc3cc(F)cc(F)c3c(Nc3cc(N4CCOCC4)cnc3N3CCOCC3)c2C)c1C; 7.89
Cc1c(-c2ccccn2)nc2cc(F)cc(F)c2c1Nc1cc(N2CCOCC2)cnc1-c1cccc(OC(F)F)c1; 8.65
Cc1c(-c2ccccn2)nc2cc(F)cc(F)c2c1Oc1cncc(N2CCOCC2)c1; 7.28
Cc1c(-c2ccccc2S(C)(=O)=O)nc2cc(F)cc(F)c2c1Nc1cncc(C2=CCOCC2)c1; 8.75
Cc1ncccc1-c1nc2cc(F)cc(F)c2c(Nc2cc(N3CCOCC3)cnc2N2CCOCC2)c1C; 8.77
Cc1ccnc(-c2nc3cc(F)cc(F)c3c(Nc3cc(N4CCOCC4)ccc3S(C)(=O)=O)c2C)c1; 9.09
Cc1c(-c2cc(-c3ccccc3)ccn2)nc2cc(F)cc(F)c2c1Nc1cc(N2CCOCC2)cnc1N1CCOCC1; 7.32
Cc1c(-c2ccnc(N3CCN(C)CC3)c2)nc2cc(F)cc(F)c2c1Nc1cc(N2CCOCC2)cnc1N1CCOCC1; 7.82

====

Listing of entries alongside the reported Ki.
target: PI3Kδ (Homo sapiens); construct: Full length p110 subunits of PI3k α, β and δ, N-terminally labeled with polyHis tag; polyHis (N); assay: PI3Kδ Alphascreen assay
MEASURE: Ki (nM)

Cc1c(-c2ccccn2)nc2c(Cl)c(F)cc(F)c2c1Nc1cc(N2CCOCC2)cnc1N1CCOCC1; 2.85
CNC(=O)[C@H]1CCCN1c1nc2cc(F)cc(F)c2c(Nc2cncc(N3CCOCC3)c2)c1C; 10.4
COc1ccccc1-c1ncc(N2CCOCC2)cc1Nc1c(C)c(-c2ccccn2)nc2cc(F)cc(F)c12; 8.53
Cc1c(-c2ccccn2)nc2cc(F)cc(F)c2c1Nc1cc(N2CCOCC2)ccc1C1=CCOCC1; 7.65
Cc1cc(-c2nc3cc(F)cc(F)c3c(Nc3cc(N4CCOCC4)cnc3N3CCOCC3)c2C)ccn1; 26.5
Cc1c(N2CCC[C@H]2C(=O)O)nc2cc(F)cc(F)c2c1Nc1cncc(N2CCOCC2)c1; 9.37
Cc1c(-c2ccccn2)nc2cc(F)cc(F)c2c1Nc1cc(C2=CCOCC2)cnc1C1=CCOCC1; 3.08
Cc1c(-c2cc([N+](=O)[O-])ccc2S(C)(=O)=O)nc2cc(F)ccc2c1Nc1cc(N2CCOCC2)cnc1N1CCOCC1; 8.25
Cc1c(N2CCNCC2)nc2cc(F)cc(F)c2c1Nc1cncc(N2CCOCC2)c1; 87.1

====

target: PI3Kδ (Homo sapiens, UniProt O00329); construct: Full length p110 subunits of PI3k α, β and δ, N-terminally labeled with polyHis tag; polyHis (N); test: PI3Kδ Alphascreen assay
Entries and their measured Ki follow.
MEASURE: Ki (nM)

COc1ccc(-c2ccc(N3CCOCC3)cc2Nc2c(C)c(-c3cc(C)ccn3)nc3cc(F)cc(F)c23)cn1; 3.59
Cc1c(-c2cncc(Cl)c2)nc2cc(F)cc(F)c2c1Nc1cc(N2CCOCC2)cnc1N1CCOCC1; 11.2
Cc1c(N2CCN(C(C)C)C(=O)C2)nc2cc(F)cc(F)c2c1Nc1cncc(N2CCOCC2)c1; 24
COc1ccc(-c2ncc(N3CCOCC3)cc2Nc2c(C)c(-c3cc(C)ccn3)nc3cc(F)cc(F)c23)cn1; 3.18
Cc1c(-c2ccc(F)nc2)nc2cc(F)cc(F)c2c1Nc1cc(N2CCOCC2)cnc1N1CCOCC1; 18.5
Cc1c(N2CCN(C(=O)OC(C)(C)C)CC2)nc2cc(F)cc(F)c2c1Nc1cncc(N2CCOCC2)c1; 353
Cc1c(-c2ccc(N(C)C)nc2)nc2cc(F)cc(F)c2c1Nc1cc(N2CCOCC2)cnc1N1CCOCC1; 24.4
Cc1c(-c2cc(F)ccc2S(C)(=O)=O)nc2cc(F)cc(F)c2c1Nc1cncc(N2CCOCC2)c1; 2.91

====

biological target: PI3Kδ (Homo sapiens, UniProt O00329); construct: Full length p110 subunits of PI3k α, β and δ, N-terminally labeled with polyHis tag; polyHis (N); assay: PI3Kδ Alphascreen assay
MEASURE: Ki (nM)

Cc1c(-c2ccc(N3CCCC3)nc2)nc2cc(F)cc(F)c2c1Nc1cc(N2CCOCC2)cnc1N1CCOCC1; 46.8
Cc1ccnc(-c2nc3cc(F)ccc3c(Nc3cc(N4CCOCC4)cnc3N3CCOCC3)c2C)c1; 35.1
Cc1c(-c2ccc(N3CCCCC3)nc2)nc2cc(F)cc(F)c2c1Nc1cncc(N2CCOCC2)c1; 517
Cc1c(N2CCN(S(=O)(=O)CC(C)C)CC2)nc2cc(F)cc(F)c2c1Nc1cncc(N2CCOCC2)c1; 71.3
Cc1c(N2CCN(S(=O)(=O)C3CCCC3)CC2)nc2cc(F)cc(F)c2c1Nc1cncc(N2CCOCC2)c1; 51
Cc1c(N2CCN(S(C)(=O)=O)CC2)nc2cc(F)cc(F)c2c1Nc1cncc(N2CCOCC2)c1; 45.5
Cc1c(N2CCN(S(=O)(=O)C(C)C)CC2)nc2cc(F)cc(F)c2c1Nc1cncc(N2CCOCC2)c1; 53.4
CSc1cncc(-c2nc3cc(F)cc(F)c3c(Nc3cc(N4CCOCC4)cnc3N3CCOCC3)c2C)c1; 11.3
